- system: human recombinant H-PGDS (Homo sapiens)
- assay.notes: Fluorescence intensity h-PGDS TBA enzyme assay (PGH2 depletion, MDA/TBA fluorescence)
- Type: biochemical
- cond: 1:175,000 human recombinant H-PGDS, 42 second reaction, 3-fold serial dilutions, highest concentration typically 1 μM
pIC50: −log10 of the molar value.
observed.property: pIC50

                                   compound  test_value
0  O=C(N[C@@H]1CC[C@@H](O)C1)c1ccc(-c2cccc(F)c2)nc1 [Example 130A]        7.28
1  O=C(N[C@H]1CC[C@H](N2CCCC2)CC1)c1ccc(-c2cccc(F)c2)nc1 [Example 213]        7.44
2  CC(O)C(=O)N[C@H]1CC[C@@H](NC(=O)c2ccc(-c3cccc(F)c3)nc2)CC1 (relative stereo) [Example 222]        7.29

(a) NC1CCN(C(=O)[C@H]2CC[C@@H](NC(=O)c3ccc(-c4cccc(F)c4)nc3)C2)CC1 [Example 187]
(b) CN(C)CC(=O)N[C@H]1CC[C@@H](NC(=O)c2ccc(-c3cccc(F)c3)nc2)CC1 [Example 221]
(c) CN[C@H]1CC[C@H](NC(=O)[C@@H]2CCC[C@H](NC(=O)c3ccc(-c4cccc(F)c4)nc3)C2)CC1 (stereo in doubt) [Example 193]
(d) CC(=O)NC(C)[C@H]1CC[C@H](NC(=O)c2ccc(-c3cccc(F)c3)nc2)CC1 (stereo partly shown) [Example 147]
Sort by pIC50, descending. Present the labels in the sequence the task asks for. d, c, a, b

====

- system: human recombinant H-PGDS (Homo sapiens, UniProt O60760)
- Sequence (O60760 whole entry): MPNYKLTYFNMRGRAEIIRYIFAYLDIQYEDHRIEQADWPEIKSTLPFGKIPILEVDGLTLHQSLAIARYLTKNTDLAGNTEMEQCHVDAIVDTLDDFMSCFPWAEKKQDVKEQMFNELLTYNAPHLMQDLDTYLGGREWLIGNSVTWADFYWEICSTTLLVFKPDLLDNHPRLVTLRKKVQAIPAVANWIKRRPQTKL
- assay.notes: Fluorescence intensity h-PGDS TBA enzyme assay (PGH2 depletion, MDA/TBA fluorescence)
- Assay type: biochemical
- cond: 1:175,000 human recombinant H-PGDS, 42 second reaction, 3-fold serial dilutions, highest concentration typically 1 μM
pIC50: −log10 of the molar value.
observed.property: pIC50

In [3]: df
Out[3]:
                                   compound  test_value
0  COCCNC(=O)[C@H]1CC[C@H](NC(=O)c2ccc(-c3cccc(F)c3)nc2)CC1 [Example 113I]        7.98

(A) CN1CCN(CC(=O)N[C@H]2CCC[C@H](NC(=O)c3ccc(-c4cccc(F)c4)nc3)C2)CC1 (relative stereo)
(B) O=C(NC1CCCCC1)c1ccc(-c2ccccc2)nc1 [Example 21, N-Cyclohexyl-6-phenylnicotinamide]
(C) NC1CCN(C(=O)[C@@H]2CC[C@H](NC(=O)c3ccc(-c4cccc(F)c4)nc3)C2)CC1
Sort by pIC50, descending. Present the labels in the sequence the task asks for. B, C, A

====

- system: human recombinant H-PGDS (Homo sapiens, UniProt O60760)
- assay.notes: Slightly modified fluorescence intensity h-PGDS TBA enzyme assay (1:40,000 enzyme, 40 second reaction, 1/2 log dilutions, top concentration typically 10 μM)
- Format: biochemical
- cond: slightly modified assay: 1:40,000 human recombinant H-PGDS
observed.property: IC50 (µM)

(A) CN(C)CCCNC(=O)[C@@H]1CCC[C@H](NC(=O)c2ccc(-c3cccc(F)c3)nc2)C1 (relative stereo) [Example 64F]
(B) O=C(N[C@H]1CCC[C@@H](C(=O)NC2CCCC2)C1)c1ccc(-c2cccc(F)c2)nc1 (relative stereo) [Example 33]
(C) O=C(N[C@H]1CC[C@H](C(=O)N2CCN(C3CC3)CC2)CC1)c1ccc(-c2cccc(F)c2)nc1 [Example 107]
Rank the 3 molecules: largest IC50 first, smallest last. Present the labels in the sequence the task asks for. C, A, B
(C: 0.0311 µM, A: 0.0168 µM, B: 0.01 µM)
